# credit: patent US12435061B2

# experiment-description: Aqueous solubility assay in Normal Ringer Solution
# study-conditions: Normal Ringer Solution, saline or isotonic, kinetic from dmso stock
What solubility at 40 min was measured for each of the following?

>>> df
                                   compound          readout_type     result
0  CC(C)c1ccccc1Oc1ccc(C2CCN(C(=O)c3ncccc3Cl)C2)c(CO)c1 (centres unmarked)  solubility at 40 min     > 8 µM
1  CC(C)c1ccccc1-c1ccc(C2CCN(C(=O)c3cc(Cl)ccn3)C2)c(CO)c1 (centres unmarked)  solubility at 40 min  > 12.8 µM
2  Cc1nc(C(=O)N2CCC(c3ccc(-c4ccccc4C4CC4)cc3CO)C2)ccc1O (centres unmarked)  solubility at 40 min  0.0183 µM
3  CCc1ccccc1-c1ccc(C2CCN(C(=O)c3cc(Cl)ccn3)C2)c(CO)c1 (centres unmarked)  solubility at 40 min     > 8 µM
4  CC(C)c1ccccc1-c1ccc([C@H]2CCN(C(=O)c3ccc(F)cn3)C2)c(CO)c1  solubility at 40 min  > 15.4 µM

Below is a list of compounds. For each, state its recorded solubility at 40 min.
1. CC(C)c1ccccc1-c1ccc(C2CCN(C(=O)c3ccc(F)cn3)C2)c(CO)c1 (centres unmarked)
2. Cc1ccc(C(=O)c2ccc(N3CC[C@H](Oc4ncccc4Cl)C3)c(CO)c2)cc1
3. CCc1ccccc1-c1ccc(C2CCN(C(=O)c3cccc(Cl)n3)C2)c(CO)c1 (centres unmarked)

Resp:
1. > 16.6 µM
2. 0.47 µM
3. ~7.7 µM

* * *

# assayed-system: hTRPV3 (Homo sapiens (Human), UniProt Q8NET8)
# Sequence (Q8NET8 whole entry): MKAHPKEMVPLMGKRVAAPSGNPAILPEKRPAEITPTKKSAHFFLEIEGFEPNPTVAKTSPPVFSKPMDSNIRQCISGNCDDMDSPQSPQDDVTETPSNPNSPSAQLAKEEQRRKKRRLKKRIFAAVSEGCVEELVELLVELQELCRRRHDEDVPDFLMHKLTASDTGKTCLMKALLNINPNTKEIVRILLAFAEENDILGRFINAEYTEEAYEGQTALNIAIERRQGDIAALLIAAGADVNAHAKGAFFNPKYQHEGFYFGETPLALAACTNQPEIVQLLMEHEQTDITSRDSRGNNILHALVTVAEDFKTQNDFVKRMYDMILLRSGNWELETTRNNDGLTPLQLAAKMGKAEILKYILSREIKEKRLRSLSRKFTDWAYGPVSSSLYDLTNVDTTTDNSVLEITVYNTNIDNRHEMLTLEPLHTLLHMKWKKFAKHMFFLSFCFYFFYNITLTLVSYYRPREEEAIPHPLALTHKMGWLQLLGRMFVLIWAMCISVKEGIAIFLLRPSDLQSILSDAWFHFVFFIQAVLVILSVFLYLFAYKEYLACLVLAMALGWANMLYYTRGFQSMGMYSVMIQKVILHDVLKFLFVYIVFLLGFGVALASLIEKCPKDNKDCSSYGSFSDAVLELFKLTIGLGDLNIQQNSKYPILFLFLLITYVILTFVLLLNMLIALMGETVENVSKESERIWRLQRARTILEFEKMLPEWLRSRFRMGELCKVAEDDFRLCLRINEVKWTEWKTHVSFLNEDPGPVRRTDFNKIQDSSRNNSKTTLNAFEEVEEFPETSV
# experiment-description: Whole-cell patch clamp, hTRPV3 Phase 1 / Phase 2 currents
# Format: cell-based
# study-conditions: Phase 1 current; read-out: hTRPV3 (nM) (Phase 1)
Structures can show the parent of a compound that is named as a salt.
readout-type: IC50 (nM)
One number for each entry, in nM.

These solved cases illustrate the format of a correct answer.
>>> df
                                   compound  unit_annotation  measured_number
0  N#Cc1cc(C(F)(F)F)ccc1N1CC[C@H](Oc2ccc(C(F)(F)F)cn2)C1 [Compound 1-57]               nM              706
1  OCc1cc(-c2ccccc2)ccc1N1CC[C@H](Nc2nc(C(F)(F)F)cs2)C1 [Compound 1-394]               nM              616

Next, consider the following compound.
Req: Given the compound NC(=O)c1cc(-c2ccncc2)ccc1N1CC[C@@H](Oc2ncccc2Cl)C1 [Compound 1-82, hydrochloride] , what is its reported IC50?
Resp: 3600

* * *

# assayed-system: hTRPV3 (Homo sapiens (Human), UniProt Q8NET8)
# experiment-description: Whole-cell patch clamp, hTRPV3 Phase 1 / Phase 2 currents
# Type: cell-based
# study-conditions: Phase 2 current; read-out: hTRPV3 (nM) (Phase 2)
readout-type: IC50 (nM)
Give bare numbers, in nM.

                               smiles_entry  unit_annotation  measured_number
0  CCc1ccccc1-c1ccc(N2CC[C@H](Oc3ccc(C)cn3)C2)c(CO)n1               nM             2950

Next, consider the following molecule.
Req: Given the molecule "O=C(c1ccc(F)cc1)c1ccc(N2CC[C@H](Oc3ncccc3F)C2)c(CO)c1" , what is its reported IC50?
Resp: 322
